- assay.remarks: A qHTS for Small Molecule Inhibitors of Shiga Toxin
- test.context: Vero cells, Shiga toxin protein synthesis inhibition reporter; at 38.7 µM
Among all 290,000 compounds or so, about 27,000 (9.3%) were called active. Rule as the data show it: active = inhibition mostly above about 28% (no sharp cut-off); inactive = mostly below about 43%. Many of the other results were omitted from the sample, so actives are more common in it than they were.
Choose the fitting class; nothing outside yes (1) = active, no (0) = inactive is accepted.

*Q* Please share the test call associated with O=C(CN1CCC(NC(=O)Nc2ccccc2)CC1)Nc1cccc([N+](=O)[O-])c1 .
*A* no (0)

*Q* Could you please tell me the result logged for NS(=O)(=O)c1ccc(NC(=S)NC(=O)c2cccc(Br)c2)cc1 in this assay?
*A* no (0)
